Answer each item with its documented shrunken log2 fold change.
system: Escherichia coli TOP10; assay: shrunken log2 fold change of peptide-encoding DNA abundance (4.5 h post-induction vs induction); higher = less antimicrobial activity (less host growth inhibition); conditions: time post-induction: 4.5 h; library: site-saturation at positions 5, 18, 19, 20
No unit in the answer, only the number.

Asked: Given the sequence RRIRTRPPRLPRPRPRPIWTPRP , write its reported shrunken log2 fold change.
Given back: 0.00694

Asked: Answer with the recorded shrunken log2 fold change for the sequence listed here: RRIRWRPPRLPRPRPRPRTVPRP
Given back: 0.0512

Asked: Tell us which shrunken log2 fold change value is on record for RRIRYRPPRLPRPRPRPPRDPRP
Given back: 0.102

Asked: State, in one line, measured shrunken log2 fold change of RRIRNRPPRLPRPRPRPFRDPRP
Given back: 0.0452

Asked: Kindly indicate its recorded shrunken log2 fold change. Item: RRIRMRPPRLPRPRPRPWSCPRP
Given back: -0.0965

Asked: Note down shrunken log2 fold change recorded for RRIRPRPPRLPRPRPRPLGEPRP
Given back: -0.155

Asked: Give the measured shrunken log2 fold change for RRIRGRPPRLPRPRPRPMWDPRP
Given back: 0.639

Asked: Using the record for RRIRPRPPRLPRPRPRPPRAPRP , state its measured shrunken log2 fold change.
Given back: 0.591

Asked: Let me know recorded shrunken log2 fold change for RRIRIRPPRLPRPRPRPADPPRP , thanks.
Given back: -0.071

Asked: Read the entry RRIRSRPPRLPRPRPRPNPCPRP and write its reported shrunken log2 fold change.
Given back: -0.574

Asked: Please indicate shrunken log2 fold change recorded for RRIRIRPPRLPRPRPRPVINPRP
Given back: -0.198

Asked: For the sequence RRIRMRPPRLPRPRPRPPNKPRP , report shrunken log2 fold change.
Given back: 0.604

Asked: For the sequence RRIRYRPPRLPRPRPRPSAHPRP , give its measured shrunken log2 fold change value.
Given back: -0.117

Asked: Name the recorded shrunken log2 fold change of the item RRIRERPPRLPRPRPRPFFQPRP in your answer.
Given back: -0.173

Asked: Item RRIRKRPPRLPRPRPRPSMKPRP : provide shrunken log2 fold change
Given back: -0.212

---

What shrunken log2 fold change was measured for each of the following?
tested on: Escherichia coli TOP10; experiment: shrunken log2 fold change of peptide-encoding DNA abundance (4.5 h post-induction vs induction); higher = less antimicrobial activity (less host growth inhibition); conditions: time post-induction: 4.5 h; library: site-saturation at positions 5, 18, 19, 20
Kindly provide the number alone.

Asked: Identify shrunken log2 fold change associated with the sequence RRIRHRPPRLPRPRPRPMVAPRP
Given back: 0.195

Asked: Provide shrunken log2 fold change value for the following sequence: RRIRLRPPRLPRPRPRPMRQPRP
Given back: 0.181

Asked: Tell me measured shrunken log2 fold change for RRIRVRPPRLPRPRPRPWRFPRP please.
Given back: -0.0846

Asked: Look up shrunken log2 fold change of RRIRMRPPRLPRPRPRPFNPPRP and report it.
Given back: -1.51

Asked: // Input: RRIRMRPPRLPRPRPRPTYEPRP . Output its shrunken log2 fold change only.
Given back: -0.16

Asked: Look up shrunken log2 fold change of RRIRFRPPRLPRPRPRPELLPRP and report it.
Given back: 0.146

Asked: Return reported shrunken log2 fold change. Input sequence: RRIRQRPPRLPRPRPRPQPVPRP
Given back: 0.00167

Asked: Identify shrunken log2 fold change associated with the sequence RRIRKRPPRLPRPRPRPRSRPRP
Given back: 0.418

Asked: Give me measured shrunken log2 fold change, please, for this sequence: RRIRARPPRLPRPRPRPCKAPRP
Given back: 0.125

Asked: Give the reported shrunken log2 fold change for this sequence. RRIRDRPPRLPRPRPRPLNGPRP
Given back: -0.00962

Asked: Give the measured shrunken log2 fold change for RRIRARPPRLPRPRPRPMIHPRP
Given back: -0.119

Asked: Identify measured shrunken log2 fold change corresponding to RRIRWRPPRLPRPRPRPTTNPRP
Given back: 0.217

Asked: Report shrunken log2 fold change for RRIRKRPPRLPRPRPRPLFFPRP
Given back: 0.147

Asked: Retrieve shrunken log2 fold change measured for RRIRYRPPRLPRPRPRPMPYPRP and print it.
Given back: -0.0899

Asked: Given the sequence RRIRQRPPRLPRPRPRPPYLPRP , write its reported shrunken log2 fold change.
Given back: -0.289

---

tested on: Escherichia coli TOP10; test: shrunken log2 fold change of peptide-encoding DNA abundance (4.5 h post-induction vs induction); higher = less antimicrobial activity (less host growth inhibition); details: time post-induction: 4.5 h; library: site-saturation at positions 5, 18, 19, 20;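 note: peptides expressed intracellularly from a pBAD plasmid library in pooled LB shake-flask culture, induced with 0.3% L-arabinose, DNA abundance read by NGS, three biological replicates, DESeq2 with apeglm shrinkage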
Short version: shrunken log2 fold change at least -0.02 is criterion met, less is criterion not met.

Asked: Can RRIRERPPRLPRPRPRPKRMPRP be said to have shrunken log2 fold change at or above -0.02?
Given back: criterion not met

Asked: Identify whether the reported shrunken log2 fold change of the following sequence is -0.02 or greater: RRIRLRPPRLPRPRPRPCNPPRP
Given back: criterion met

Asked: Can RRIRQRPPRLPRPRPRPTNNPRP be said to have shrunken log2 fold change at or above -0.02?
Given back: criterion not met

Asked: Say whether RRIRERPPRLPRPRPRPAVMPRP shows shrunken log2 fold change of -0.02 or more.
Given back: criterion met

Asked: Threshold query (shrunken log2 fold change >= -0.02) on RRIRHRPPRLPRPRPRPNPIPRP
Given back: criterion not met

Asked: Does the reported shrunken log2 fold change for RRIRHRPPRLPRPRPRPIQIPRP fall at or above the -0.02 mark?
Given back: criterion not met

Asked: Check the entry RRIRFRPPRLPRPRPRPVFYPRP : does shrunken log2 fold change equal or exceed -0.02?
Given back: criterion not met

Asked: Does the sequence RRIRGRPPRLPRPRPRPIYEPRP have recorded shrunken log2 fold change that is -0.02 or more?
Given back: criterion not met

Asked: Does the sequence RRIRERPPRLPRPRPRPNGMPRP have recorded shrunken log2 fold change that is -0.02 or more?
Given back: criterion met

Asked: Record RRIRVRPPRLPRPRPRPVCMPRP ; criterion: shrunken log2 fold change no lower than -0.02. Met?
Given back: criterion met

Asked: Given RRIRVRPPRLPRPRPRPPIGPRP , state whether its shrunken log2 fold change is at least -0.02.
Given back: criterion met

Asked: # check: shrunken log2 fold change of RRIRIRPPRLPRPRPRPERFPRP is greater than or equal to -0.02
Given back: criterion met

Asked: Kindly determine if shrunken log2 fold change recorded for RRIRYRPPRLPRPRPRPEKIPRP is above or exactly -0.02.
Given back: criterion met

Asked: Form field: shrunken log2 fold change at least -0.02? Entry: RRIRPRPPRLPRPRPRPHHVPRP
Given back: criterion met

Asked: Entry RRIRRRPPRLPRPRPRPTYCPRP : is its shrunken log2 fold change no less than -0.02?
Given back: criterion not met

Asked: # check: shrunken log2 fold change of RRIRDRPPRLPRPRPRPVYYPRP is greater than or equal to -0.02
Given back: criterion not met

Asked: Could you tell me if the measured shrunken log2 fold change of RRIRMRPPRLPRPRPRPQLIPRP reaches -0.02 or more?
Given back: criterion not met

Asked: Threshold query (shrunken log2 fold change >= -0.02) on RRIRTRPPRLPRPRPRPEIKPRP
Given back: criterion met

Asked: Check if shrunken log2 fold change >= -0.02 (inclusive). Item: RRIRRRPPRLPRPRPRPGLGPRP
Given back: criterion met

Asked: In plain terms: is recorded shrunken log2 fold change at least -0.02 for RRIRGRPPRLPRPRPRPSYFPRP ?
Given back: criterion met

Asked: Given the entry RRIRLRPPRLPRPRPRPKQGPRP , answer whether its shrunken log2 fold change meets or surpasses -0.02.
Given back: criterion not met

Asked: Given RRIRWRPPRLPRPRPRPQCSPRP , state whether its shrunken log2 fold change is at least -0.02.
Given back: criterion met

Asked: Entry RRIRFRPPRLPRPRPRPECDPRP : is its shrunken log2 fold change no less than -0.02?
Given back: criterion met

Asked: Quick check, shrunken log2 fold change >= -0.02? RRIRFRPPRLPRPRPRPTVHPRP
Given back: criterion not met

Asked: Entry RRIRPRPPRLPRPRPRPTIDPRP : is its shrunken log2 fold change no less than -0.02?
Given back: criterion not met

Asked: shrunken log2 fold change >= -0.02 for RRIRPRPPRLPRPRPRPYLVPRP ?
Given back: criterion not met

Asked: Could you verify whether the entry RRIRQRPPRLPRPRPRPWKLPRP shows shrunken log2 fold change of no less than -0.02?
Given back: criterion not met

Asked: Textbook exercise: given the entry RRIRKRPPRLPRPRPRPKNCPRP , state whether its shrunken log2 fold change is greater than or equal to -0.02.
Given back: criterion met

Asked: Does the reported shrunken log2 fold change for RRIRKRPPRLPRPRPRPTTGPRP fall at or above the -0.02 mark?
Given back: criterion met

Asked: Hi team, for RRIRYRPPRLPRPRPRPCVLPRP , is the recorded shrunken log2 fold change at or above -0.02?
Given back: criterion met

Asked: Does the sequence RRIRTRPPRLPRPRPRPKLNPRP have recorded shrunken log2 fold change that is -0.02 or more?
Given back: criterion met

Asked: Answer whether shrunken log2 fold change of RRIRARPPRLPRPRPRPFHGPRP is greater than or equal to -0.02.
Given back: criterion met
